- SYSTEM: LRRK2 (Homo sapiens, UniProt Q5S007)
- Sequence (Q5S007 970-2527 limits assumed): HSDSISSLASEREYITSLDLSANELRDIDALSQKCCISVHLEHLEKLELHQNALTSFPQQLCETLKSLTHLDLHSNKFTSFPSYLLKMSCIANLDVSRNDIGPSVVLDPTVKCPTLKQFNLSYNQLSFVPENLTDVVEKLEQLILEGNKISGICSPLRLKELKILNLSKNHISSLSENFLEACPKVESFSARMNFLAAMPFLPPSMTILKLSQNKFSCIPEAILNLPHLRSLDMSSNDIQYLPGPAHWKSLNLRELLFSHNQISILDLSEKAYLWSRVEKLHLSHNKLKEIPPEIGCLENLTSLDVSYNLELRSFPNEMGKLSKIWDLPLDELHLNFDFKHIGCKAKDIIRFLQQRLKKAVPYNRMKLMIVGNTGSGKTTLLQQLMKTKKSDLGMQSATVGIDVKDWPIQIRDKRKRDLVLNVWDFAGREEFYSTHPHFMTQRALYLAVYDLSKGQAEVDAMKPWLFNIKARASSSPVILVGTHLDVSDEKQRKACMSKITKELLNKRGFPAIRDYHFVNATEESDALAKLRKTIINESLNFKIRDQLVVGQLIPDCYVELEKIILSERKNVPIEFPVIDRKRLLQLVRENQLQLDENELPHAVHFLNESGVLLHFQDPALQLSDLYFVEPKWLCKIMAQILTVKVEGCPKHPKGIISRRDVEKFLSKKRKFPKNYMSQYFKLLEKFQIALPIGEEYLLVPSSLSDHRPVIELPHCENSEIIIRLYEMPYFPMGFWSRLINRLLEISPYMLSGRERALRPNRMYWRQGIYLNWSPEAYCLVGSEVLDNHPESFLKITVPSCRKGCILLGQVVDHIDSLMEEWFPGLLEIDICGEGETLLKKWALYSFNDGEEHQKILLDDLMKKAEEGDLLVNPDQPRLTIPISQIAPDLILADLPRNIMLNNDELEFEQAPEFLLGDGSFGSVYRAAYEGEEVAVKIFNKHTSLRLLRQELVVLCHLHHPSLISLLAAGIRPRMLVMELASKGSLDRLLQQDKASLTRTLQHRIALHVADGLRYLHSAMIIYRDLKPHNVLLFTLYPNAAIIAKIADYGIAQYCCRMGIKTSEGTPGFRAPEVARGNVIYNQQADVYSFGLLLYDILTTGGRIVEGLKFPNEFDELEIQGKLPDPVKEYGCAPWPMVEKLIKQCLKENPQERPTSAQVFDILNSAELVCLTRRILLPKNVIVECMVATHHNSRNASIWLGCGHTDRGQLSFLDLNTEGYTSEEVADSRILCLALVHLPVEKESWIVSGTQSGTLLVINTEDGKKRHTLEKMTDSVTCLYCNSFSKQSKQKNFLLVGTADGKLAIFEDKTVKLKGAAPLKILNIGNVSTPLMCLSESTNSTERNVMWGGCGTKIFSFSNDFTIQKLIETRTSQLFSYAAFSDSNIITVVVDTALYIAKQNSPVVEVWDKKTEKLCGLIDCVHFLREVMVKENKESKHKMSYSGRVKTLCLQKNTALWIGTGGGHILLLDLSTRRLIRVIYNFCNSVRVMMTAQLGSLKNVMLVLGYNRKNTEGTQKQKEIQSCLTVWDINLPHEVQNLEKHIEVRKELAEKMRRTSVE
- TEST METHOD NOTES: LRRK2-LRRK2 G2019S-Assay (LanthaScreen Eu Kinase Binding Assay)
- EXPERIMENTAL SETUP: 5 nM LRRK2 or their mutants, 10 nM tracer 236, RT 1 h; read-out: LRRK2 Activities: IC50
pIC50: −log10 of the molar value.
REPORTED ENDPOINT: pIC50

Observe how each entry below is paired with its result.
INSERT INTO measurements (smiles_code, value) VALUES
  ('Fc1ccccc1-c1nc(Nc2ccc(N3CCOCC3)cc2)c2[nH]ncc2n1', '6.00 to 7.00'),
  ('O=C(c1ccc(Nc2nc(-c3cccs3)nc3cn[nH]c23)cc1)N1CCCC1', '> 8.00'),
  ('O=C1COc2ccc(Nc3nc(-c4cccs4)nc4cn[nH]c34)cc2N1', '6.00 to 7.00'),
  ('COc1cccc(-c2nc(Nc3ccc(N4CCOCC4)cc3)c3[nH]ncc3n2)c1', '6.00 to 7.00');

Recorded pIC50 of `COc1cccc(-c2nc(Nc3ccc(N4CCN(C)CC4)cc3)c3[nH]ncc3n2)c1` , please.
7.00 to 8.00

// lookup pIC50 for `COc1ccc(Nc2nc(-c3cccc(F)c3)nc3cn[nH]c23)cc1OC`
6.00 to 7.00

Suppose we examine the compound `O=C(O)c1ccc(Nc2nc(-c3ccccc3)nc3cn[nH]c23)cc1` ; what pIC50 value has been reported?
6.00 to 7.00

Could you share which pIC50 value was measured for `CC(C)(C)N1CCN(c2ccc(Nc3nc(-c4cccs4)nc4cn[nH]c34)cc2)CC1` ?
6.00 to 7.00

Quick one: pIC50 for `O=C1CCc2ccc(Nc3nc(-c4cccc(-c5nn[nH]n5)c4)nc4cn[nH]c34)cc2N1` ?
6.00 to 7.00

Sample `CS(=O)(=O)Nc1cccc(-c2nc(Nc3ccc4c(c3)NC(=O)CC4)c3[nH]ncc3n2)c1` — what was its pIC50?
7.00 to 8.00

Please give the measured pIC50 for this compound: `Cc1nc2cc(Nc3nc(-c4ccccc4)nc4cn[nH]c34)ccc2[nH]1`
6.00 to 7.00

###

Catalogue of Ki values
- SYSTEM: SYK kinase (Homo sapiens, UniProt P43405)

Worked examples, 3 molecules total:
INSERT INTO results (smiles_code, system, value) VALUES
  ('CN(C)c1cccc(Nc2nc(-c3ccsc3)nc3cn[nH]c23)c1', 'SYK kinase (Homo sapiens, UniProt P43405)', '10 to 100 nM'),
  ('CN(C)Cc1cccc(Nc2nc(-c3cccs3)nc3cn[nH]c23)c1', 'SYK kinase (Homo sapiens, UniProt P43405)', '100 to 1000 nM'),
  ('COc1ccc(-c2nc(Nc3ccc4c(c3)NC(=O)CC4)c3[nH]ncc3n2)cc1', 'SYK kinase (Homo sapiens, UniProt P43405)', '10 to 100 nM');

Endpoint output: Ki of `COc1ccc(-c2nc(Nc3ccc(OC)c(OC)c3)c3[nH]ncc3n2)cc1` . Value?
< 10 nM

Endpoint output: Ki of `COc1ccc(-c2nc(Nc3ccc4c(c3)NC(=O)CCC4)c3[nH]ncc3n2)cc1` . Value?
< 10 nM

Need Ki, item `N[C@@H]1CCCC[C@@H]1Nc1nc(-c2ccsc2)nc2cn[nH]c12`
10 to 100 nM

GET /values?readout=Ki&item= `CN(C)c1ccc(Nc2nc(-c3ccsc3)nc3cn[nH]c23)cc1`
< 10 nM

###

- SYSTEM: SYK kinase (Homo sapiens)
pKi: −log10 of the molar value.
Parameter pKi: see the listing below.

Answered examples (3):
INSERT INTO results (compound, system, value) VALUES
  ('c1cc(-c2nc(Nc3cc(C4CC4)[nH]n3)c3[nH]ncc3n2)cs1 [Example #77]', 'SYK kinase (Homo sapiens)', '7.00 to 8.00'),
  ('CN1CCC(c2ccc(Nc3nc(-c4cccs4)nc4cn[nH]c34)cc2)CC1 [Example #209]', 'SYK kinase (Homo sapiens)', '7.00 to 8.00'),
  ('COc1ccc(Nc2nc(-c3cccc(F)c3)nc3cn[nH]c23)cc1OC [Example #234]', 'SYK kinase (Homo sapiens)', '> 8.00');

So what pKi did CN1CCN(c2ccc(Nc3nc(-c4ccsc4)nc4cn[nH]c34)cc2)CC1 [Example #74] get with SYK kinase (Homo sapiens)?
> 8.00

Notebook entry, SYK kinase (Homo sapiens) assay: pKi of c1ccc(-c2nc(Nc3cc[nH]n3)c3[nH]ncc3n2)cc1 [Example #38] = ?
7.00 to 8.00

###

- SYSTEM: SYK kinase (Homo sapiens)
REPORTED ENDPOINT: Ki

Use the examples below as a reference point.
INSERT INTO measurements (smiles_code, value) VALUES
  ('COc1ccc(Nc2nc(-c3ccc(OC)c(OC)c3)nc3cn[nH]c23)cc1OC', '0.01 to 0.1 µM'),
  ('COc1ccc(-c2nc(Nc3ccc4cn[nH]c4c3)c3[nH]ncc3n2)cc1', '< 0.01 µM'),
  ('O=S1(=O)CCN(c2ccc(Nc3nc(-c4cccs4)nc4cn[nH]c34)cc2)CC1', '< 0.01 µM');

SYK kinase (Homo sapiens) / Ki / `CN1CCC(c2nc(Nc3ccc4[nH]ncc4c3)c3[nH]ncc3n2)CC1` : value?
0.01 to 0.1 µM

Param readout = Ki; param system = SYK kinase (Homo sapiens); param query = `CN1CCN(C(=O)c2ccc(Nc3nc(-c4cccs4)nc4cn[nH]c34)cc2)CC1` ; response: value
< 0.01 µM

I'm curious: which Ki was measured for `c1ccn2cc(-c3nc(Nc4ccc5cn[nH]c5c4)c4[nH]ncc4n3)nc2c1` tested on SYK kinase (Homo sapiens)?
0.01 to 0.1 µM

Query for SYK kinase (Homo sapiens): what Ki does the record show for `FC(F)(F)Oc1cccc(-c2nc(Nc3ccc(N4CCOCC4)cc3)c3[nH]ncc3n2)c1` ?
0.01 to 0.1 µM

Record `Cc1nc2cc(Nc3nc(-c4cccs4)nc4cn[nH]c34)ccc2[nH]1` : what is its Ki with SYK kinase (Homo sapiens)?
< 0.01 µM

Kindly state the measured Ki obtained for `O=C1CCCc2ccc(Nc3nc(-c4cccc(C(=O)O)c4)nc4cn[nH]c34)cc2N1` with SYK kinase (Homo sapiens).
0.01 to 0.1 µM

Observed Ki on SYK kinase (Homo sapiens) for `COc1ccc(Nc2nc(-c3ccc(N4CCCC4)nc3)nc3cn[nH]c23)cc1OC` , please.
0.01 to 0.1 µM

Under SYK kinase (Homo sapiens): Ki value of `c1cc2cn[nH]c2cc1Nc1nc(-c2ccc(N3CCCC3)nc2)nc2cn[nH]c12` ?
< 0.01 µM

###

- SYSTEM: LRRK2 (Homo sapiens, UniProt Q5S007)
- TEST METHOD NOTES: LRRK2-LRRK2 G2019S-Assay (LanthaScreen Eu Kinase Binding Assay)
- EXPERIMENTAL SETUP: 5 nM LRRK2 or their mutants, 10 nM tracer 236, RT 1 h; read-out: LRRK2 Activities: IC50
pIC50: −log10 of the molar value.
The following compounds are listed with their measured pIC50 values.

Worked cases, answers included:
INSERT INTO assay_data (compound, reported_endpoint, value) VALUES
  ('COc1ccc(Nc2nc(C3CCN(C)CC3)nc3cn[nH]c23)cc1OC [Example #51]', 'pIC50', '6.00 to 7.00'),
  ('NS(=O)(=O)c1cccc(-c2nc(Nc3ccc(N4CCOCC4)cc3)c3[nH]ncc3n2)c1 [Example #239]', 'pIC50', '6.00 to 7.00'),
  ('O=C1CCc2ccc(Nc3nc(-c4ccc5cn[nH]c5c4)nc4cn[nH]c34)cc2N1 [Example #269]', 'pIC50', '> 8.00'),
  ('CN(C)Cc1ccc(Nc2nc(-c3ccccc3F)nc3cn[nH]c23)cc1 [Example #311]', 'pIC50', '6.00 to 7.00'),
  ('COc1cccc(-c2nc(Nc3cccc(O)c3)c3[nH]ncc3n2)c1 [Example #81]', 'pIC50', '6.00 to 7.00'),
  ('CN(C)Cc1ccc(Nc2nc(-c3ccccc3)nc3cn[nH]c23)cc1 [Example #120]', 'pIC50', '6.00 to 7.00'),
  ('Fc1cccc(-c2nc(Nc3ccc(N4CCOCC4)cc3)c3[nH]ncc3n2)c1 [Example #235]', 'pIC50', '7.00 to 8.00'),
  ('CN1CCN(c2ccc(Nc3nc(-c4ccc5cn[nH]c5c4)nc4cn[nH]c34)cc2)CC1 [Example #248]', 'pIC50', '6.00 to 7.00');

Write down the reported pIC50 of COc1ccc(Nc2nc(-c3cccc(S(N)(=O)=O)c3)nc3cn[nH]c23)cc1OC [Example #183] , test system: LRRK2 (Homo sapiens, UniProt Q5S007).
7.00 to 8.00

Missing value: pIC50, LRRK2 (Homo sapiens, UniProt Q5S007), entry c1csc(-c2nc(Nc3ccc4c(c3)NCCO4)c3[nH]ncc3n2)c1 [Example #91] . Fill in?
7.00 to 8.00

Write down the reported pIC50 of CN1CCN(c2ccc(Nc3nc(-c4ccsc4)nc4cn[nH]c34)cn2)CC1 [Example #118] , test system: LRRK2 (Homo sapiens, UniProt Q5S007).
7.00 to 8.00

Request - read-out pIC50 | tested on LRRK2 (Homo sapiens, UniProt Q5S007) | compound CC(=O)N1CCN(c2ccc(Nc3nc(-c4nccs4)nc4cn[nH]c34)cc2)CC1 [Example #184]
7.00 to 8.00

Lab note: need pIC50 with LRRK2 (Homo sapiens, UniProt Q5S007) for entry COc1ccc(-c2nc(Nc3ccc(N4CCN(C)CC4)cc3)c3[nH]ncc3n2)cc1 [Example #66] , please look it up.
6.00 to 7.00
